Tested on: SCP28 breast cancer cells
Test: Experimental bone metastasis: intracardiac SCP28 cells in nude mice, BLI, X-ray, histology
Type: in vivo, mouse
Conditions: hindlimbs, pre-miRNA treated
From the text: Hindlimb bones were excised from mice at the end point of each experiment, immediately following X-ray and BLI. Hind limb bones were fixed in 10% neutral-buffered formalin, washed and decalcified in a solution of 10% EDTA for 2 weeks. […] For quantitative analysis of lesion area, a 5× objective was used to focus on the tumor region of interest and images were acquired using an AxioCamICc3 camera set to an exposure of 50 ms. […]

Substance: miR-141: miRNA, SEQ ID NO: 69; delivered as pre-miRNA precursor; targets Mitf and Calcr (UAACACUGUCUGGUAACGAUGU; delivered as pre-miRNA precursor, chemistry not given here; listed as Homo sapiens)
osteolytic bone lesions (X-ray): decreased bone lesions
//
Substance: miR-219: miRNA, SEQ ID NO: 66; delivered as pre-miRNA precursor; targets Mitf and Traf6 (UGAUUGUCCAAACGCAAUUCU; delivered as pre-miRNA precursor, chemistry not given here; listed as Homo sapiens)
osteolytic bone lesions (X-ray): decreased bone lesions

Source of measurements: patent US20160017326A1
